- run description: yeast display, Sf9 membrane polyspecificity reagent, FACS + sequencing; frameworks hold sequencing errors
readout label: polyreactivity (PSR sort gate)

Some solved cases for reference:
[
  {
    "construct sequence": "QVQLVESGGGLVQAGGSLRLSCAASGSLVGYYPMGWYRQAPGKERELVAAISRSGGSTYYADSVKGRFSISRDNAKNTVYLQMNSLKPEDTAVYYCATSRVRSAGRDYWGQGTQVTVSS",
    "polyreactivity (PSR sort gate)": "high polyreactivity"
  },
  {
    "construct sequence": "QVQLVESGGGLVKAGGSLRLSCAASGGTFPLYAMGWYRQAPGKERELVAAIRWSGGRTYYADSVKGRFTISRDNAKNTVYLQMNSLKPEDTAVYYCSADYDDGWGYDYWGQGTQVTVSS",
    "polyreactivity (PSR sort gate)": "high polyreactivity"
  },
  {
    "construct sequence": "QVQIVESGGGLFQAGGSLRLSCAASGGIFREYAMGWSRQAPGKERELVAVISDSGAGTYYADSVKGRFTISRDNAKNTVSLQMNSLKPEDTEVYYCAQGTARLDFPDMDPWGQGTQVTVSS",
    "polyreactivity (PSR sort gate)": "low polyreactivity"
  },
  {
    "construct sequence": "QVQLVESGGGLVQAGGSLRLSCAASGRTFRDYAMGWYRQAPGKERELVAAINWSGGTTSYADSVKGRFTISRDNAKNTVYLQMNSLKPEDTAVYYCAVPYLYKYSRYDYWGQGTQVTVSS",
    "polyreactivity (PSR sort gate)": "high polyreactivity"
  },
  {
    "construct sequence": "QVQLVESGGGLVQAGGSLRLSCAASGRIFTYYAMVWYRQAPGKERELVAAITGSGTSTYYADSVKGRFTISRDNAMNTVFLLMNSLKPEDTAVYYCAARNSFSRYYYWGQGTQVTVSS",
    "polyreactivity (PSR sort gate)": "high polyreactivity"
  }
]

Fill in reported polyreactivity (PSR sort gate) for this entry: QVQLVESGGGLVQAGGSLRLSCAASGIIFKWYGMGGYRQAPGKERELVAGITWRTGSTYYADSVKGRFTISRDNAKNTVYLQMNSLKPEDTAVYYCAARLYTYPKGKYWGQGTQVTVSS
high polyreactivity

Fill in reported polyreactivity (PSR sort gate) for this entry: QVQLVESGGGLVQAGGSLRLSCAASGGIFYLNAMGWYRQAPRKERELVAAITGTGGNTYYADSVKGRFTISRDNAKNTVYLQMNSLKPEDTAVYYCAAAAIGVGSGPFGIGWEEYYYWGLGTQVTVSS
low polyreactivity

Fill in reported polyreactivity (PSR sort gate) for this entry: QVQLVESGGGLVQAGGSLRLSCAASGVIFYVYAMGWYRQAPGKERELVAAISADGGITYYADSVKGRFTISRDNAKNTVYLQMNSLKPEDTAVYYCAADYYGSVQGGIQYGYYYWGQGTQVTVSS
low polyreactivity

Fill in reported polyreactivity (PSR sort gate) for this entry: QVQLVESGGGLVQAGGSLRLSCAASGFIFGTYAMGWYRQAPGKEWELVAAISSGGSTFYADSVKGRFTISRDNEKNTVYLQMYSLKPEDTAVYYCAKEGGTYRIFNYWGQGTQVTVSS
low polyreactivity

Fill in reported polyreactivity (PSR sort gate) for this entry: QFQLVESGGGLVQEGGSLRLSCAASGRTLAKNAMGWYRQAPGKEREFVAAISRRGGSTYYADSVKGRFTISRDYAKYTVYLQLNSLKREDTAVYYCARASRQGYYQLSYDEFDYWGQGTQVTVSS
high polyreactivity

Fill in reported polyreactivity (PSR sort gate) for this entry: QVQLVESGGGLVQAGGSLRLSCAASGYIWYNAMRWYRQAPGKERELVAAISWGGGTTYYADSVKGRFTISRDNAKNTVYLQMNSLKPEDTAVYYCAAVDAVGPTSHAMYYWGQGTQVTVSS
low polyreactivity

All figures here come from the nanobody polyreactivity screen of Harvey et al. (2022).
